testedSystem: T1, human soluble urokinase plasminogen activator receptor (suPAR) (human, UniProt Q03405 23-303, limits assumed)
T1 construct: Column head says only 'human'; also called hsuPAR; human suPAR
T1 sequence (Q03405 23-303 limits assumed): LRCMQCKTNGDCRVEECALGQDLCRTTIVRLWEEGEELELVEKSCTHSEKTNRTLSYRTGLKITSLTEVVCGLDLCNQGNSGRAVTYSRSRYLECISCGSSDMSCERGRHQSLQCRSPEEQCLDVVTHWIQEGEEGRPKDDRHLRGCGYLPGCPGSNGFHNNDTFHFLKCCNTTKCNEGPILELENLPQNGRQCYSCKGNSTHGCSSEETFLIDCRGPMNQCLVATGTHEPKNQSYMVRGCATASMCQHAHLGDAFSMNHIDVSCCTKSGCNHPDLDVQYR
testMethodNotes: BLI (Octet) off-rate screen of scFv clones
# note: boundary value 0.004 s⁻¹ maps to Not satisfied; koff below it maps to Satisfied

{"binder": "suPAR_DB05_B08 (scFv, V domains shown, Screened as scFv) VH: QVQLVQSGAEVKKPGASVKVSCKASGNAFSGHYVHWVRQAPGQGLEWMGWIDHENGNTIYAQKFQGRVTMTRDTSTSTVYMELSSLRSEDTAVYYCARGYDVDWFVYWGQGTLVTVSS VL: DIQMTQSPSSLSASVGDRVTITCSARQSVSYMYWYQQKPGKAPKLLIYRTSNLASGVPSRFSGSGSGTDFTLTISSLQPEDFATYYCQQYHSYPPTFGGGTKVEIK", "answerLabel": "Not satisfied"}
{"binder": "suPAR_DB05_A06 (scFv, V domains shown, Screened as scFv) VH: QVQLVQSGAEVKKPGASVKVSCKASGYTFTSHYVHWVRQAPGQGLEWMGWIDHENGNTIYDQKFQGRVTMTRDTSTSTVYMELSSLRSEDTAVYYCARGYDVDWFVYWGQGTLVTVSS VL: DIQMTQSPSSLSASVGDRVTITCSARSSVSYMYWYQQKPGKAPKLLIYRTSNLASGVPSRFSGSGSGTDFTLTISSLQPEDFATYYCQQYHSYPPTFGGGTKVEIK", "answerLabel": "Satisfied"}
{"binder": "suPAR_DB04_H03 (scFv, V domains shown, Screened as scFv) VH: QVQLVQSGAEVKKPGASVKVSCKASGYTFTGNYLHWVRQAPGQGLEWMGWIDHSNGSTIYDQKFQGRVTMTRDTSTSTVYMELSSLRSEDTAVYYCARGSDVDWFVYWGQGTLVTVSS VL: DIQMTQSPSSLSASVGDRVTITCSASSSVSYMYWYQQKPGKAPKLLIYRTSNLASGVPSRFSGSGSGTDFTLTISSLQPEDFATYYCQQYHSYPPTFGGGTKVEIK", "answerLabel": "Satisfied"}
{"binder": "suPAR_DB05_C02 (scFv, V domains shown, Screened as scFv) VH: QVQLVQSGAEVKKPGASVKVSCKASGDTFTSYYMHWVRQAPGQGLEWMGWIDPSNGNTIYDQKFQGRVTMTRDTSTSTVYMELSSLRSEDTAVYYCARGYDVDWFVYWGQGTLVTVSS VL: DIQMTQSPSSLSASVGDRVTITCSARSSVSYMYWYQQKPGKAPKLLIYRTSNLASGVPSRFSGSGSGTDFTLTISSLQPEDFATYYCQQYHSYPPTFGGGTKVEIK", "answerLabel": "Satisfied"}
{"binder": "suPAR_DB05_A10 (scFv, V domains shown, Screened as scFv) VH: QVQLVQSGAEVKKPGASVKVSCKASGYTFTNYYIHWVRQAPGQGLEWMGWIDPSNGNTIYDQKFQGRVTMTRDTSTSTVYMELSSLRSEDTAVYYCARGYDVDWFVYWGQGTLVTVSS VL: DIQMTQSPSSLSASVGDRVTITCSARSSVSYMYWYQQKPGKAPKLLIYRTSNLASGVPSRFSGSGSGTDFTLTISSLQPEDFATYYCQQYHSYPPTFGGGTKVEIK", "answerLabel": "Not satisfied"}

Where these numbers come from: patent US20250215104A1
